B1: Pistol ribozyme (parent)
chain: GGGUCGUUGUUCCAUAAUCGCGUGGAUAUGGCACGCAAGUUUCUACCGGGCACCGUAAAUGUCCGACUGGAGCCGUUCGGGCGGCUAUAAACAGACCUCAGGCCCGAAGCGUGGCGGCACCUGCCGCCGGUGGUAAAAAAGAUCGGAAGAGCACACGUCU

- Variants of: B1
- assay-comment: aptazyme ON/OFF ratio, guanine; higher = stronger switching; co-transcriptional cleavage with and without guanine
This section presents variants with their documented aptazyme ON/OFF ratio values.

>  <variant>
U7G U8G G9A U11G C12A C13A

>  <aptazyme ON/OFF ratio>
0.999

$$$$
>  <variant>
U8A G9U U10C C12G C13U

>  <aptazyme ON/OFF ratio>
1.25

$$$$
>  <variant>
U7A U8C G9A U10G U11C C12U C13U

>  <aptazyme ON/OFF ratio>
1.16

$$$$
>  <variant>
U7A U8G U10C C12G C13A

>  <aptazyme ON/OFF ratio>
1.19

$$$$
>  <variant>
U7G G9A U10C U11C

>  <aptazyme ON/OFF ratio>
1.04

$$$$
>  <variant>
U7C G9U U10G U11C C12U C13A

>  <aptazyme ON/OFF ratio>
1.19

$$$$
>  <variant>
U7C U8C G9A U10A U11A

>  <aptazyme ON/OFF ratio>
3.49

$$$$
>  <variant>
U7G U8C U10G C12U

>  <aptazyme ON/OFF ratio>
1.36

$$$$
>  <variant>
U7C G9C U10G U11G C12A C13U

>  <aptazyme ON/OFF ratio>
1.09

$$$$
>  <variant>
U7C U8C G9A U10A U11G C13U

>  <aptazyme ON/OFF ratio>
1.21

$$$$
>  <variant>
U8A G9C U10C C12U C13G

>  <aptazyme ON/OFF ratio>
1.03

$$$$
